molecular target: Furin (Homo sapiens); assay: Furin counterscreen qHTS for Zika virus inhibitors (AID 1347149); conditions: furin enzymatic counterscreen, fluorogenic substrate; series mostly up to 114 µM; further: nearly all actives have a fitted effect of over 70% in size; further: potency means the concentration at half of the fitted maximal effect
Inconclusive results are not listed. Active and inactive are the calls of the source. The call rests on the fitted dose curve; in most records, active means well fitted inhibition curve with a large enough effect; inconclusive means small, poorly fitted or top-dose-only effect; inactive means no such curve, though single readings can be large or run the other way. Numbered stars: 1 amine (or outer) side, 2 acyl side, 3 side chain; on linkers, the order of the positions; unused ones are H or OH. Bridge positions count the residues as written; N and C are the ends. Square brackets hold non-standard residues; d marks the D form. Peptide text beside a SMILES is read from it. I, II: the chains in the order shown. Actinocin(9to1) = Cc1c2oc3c(C)ccc(C(=O)[*:1])c3nc-2c(C(=O)[*:2])c(N)c1=O; aThr = C[C@H](O)[C@H](N)C(=O)O; NMeV = CN[C@H](C(=O)O)C(C)C; Sar = CNCC(=O)O
Measured Endpoint: Potency

Field: example entries. Status: answers known.
# Potency of Cc1ccc(-c2nnc(Nc3ccc(O)cc3)c3ccccc23)cc1S(=O)(=O)NCc1nc2ccccc2[nH]1 = inactive

# Potency of CC(C)C[C@@H](NC(=O)[C@H](Cc1ccccc1)NC(=O)c1cnccn1)B(O)O = inactive

# Potency of CCc1ccc(S(=O)(=O)Nc2cc3c(C(=O)OCc4ccccc4)c(C)oc3c3ccccc23)cc1 = inactive

# Potency of CN(Cc1cnc2nc(N)nc(N)c2n1)c1ccc(C(=O)NC(CCC(=O)O)C(=O)O)cc1 (centres undefined) = 21.5 µM (active)

# Potency of O=C(Nc1ccccc1C(=O)OCc1cc(=O)n2nc(C3CC3)sc2n1)c1ccc(Cl)cc1 = 41.8 µM (active)

More entries:
# Potency of O=C(CNC(=O)c1ccc(Cl)cc1)OCc1cc(=O)n2nc(C3CCCCC3)sc2n1 = inactive

# Potency of O=C(Nc1cccc2ccccc12)O[C@@H]1CO[C@H]2[C@@H]1OC[C@@H]2NS(=O)(=O)c1ccc2ccccc2c1 = 69.8 µM (active)

# Potency of Cc1c(NS(=O)(=O)c2ccccc2)cc(C(C)C)c(O)c1S(=O)(=O)c1ccc(Cl)cc1 = inactive

# Potency of Cc1c2oc3c(C)ccc(C(=O)N[C@@H]4C(=O)N[C@@H](C(C)C)C(=O)N5CCC[C@@H]5C(=O)N(C)CC(=O)N(C)[C@@H](C(C)C)C(=O)O[C@H]4C)c3nc-2c(C(=O)N[C@@H]2C(=O)N[C@@H](C(C)C)C(=O)N3CCC[C@@H]3C(=O)N(C)CC(=O)N(C)[C@@H](C(C)C)C(=O)O[C@H]2C)c(N)c1=O (I: [aThr]V[dP][Sar][NMeV] / II: [aThr]V[dP][Sar][NMeV]; ester I:1-I:C, II:1-II:C; linker I:N-II:N via Actinocin(9to1)) = inactive

----------
test: Primary qHTS for inhibitors of nuclear receptor binding SET domain protein 2 (NSD2) in an isogenic RCH-ACV NSD2 p.E1099K mutant (9B) (AID 1645876); settings: RCH-ACV (leukaemia line) NSD2 E1099K (9B) viability, CellTiter-Glo, 72 h; series mostly up to 44.9 µM; further: nearly all actives have a fitted effect of over 70% in size
Records with an inconclusive call do not appear. Active and inactive are the calls of the source. The call rests on the fitted dose curve; in most records, active means well fitted inhibition curve with a large enough effect; inconclusive means small, poorly fitted or top-dose-only effect; inactive means flat fitted curve, though single readings scatter.
Choose one outcome from this list and give only that: active, inactive

Some solved cases for reference:
Request: Given C[C@@]1(F)[C@H](O)[C@@H](CO)O[C@H]1n1ccc(N)nc1=O , state the outcome it received in this test.
Response: inactive

Request: Given O=C(c1ccc(F)c(F)c1Nc1ccc(I)cc1F)N1CC(O)(C2CCCCN2)C1 (configuration not stated) , state the outcome it received in this test.
Response: active

Request: Given O=C(O)c1ccc(O)c2ncc(N3CCCN(CCc4cccc5ccccc45)CC3)cc12 , state the outcome it received in this test.
Response: active

Request: Given CS(=O)(=O)c1ccc([C@@H](C[C@H]2CCC(=O)C2)C(=O)Nc2cnccn2)cc1Cl , state the outcome it received in this test.
Response: inactive

Request: Given C=C(C)[C@@H]1CCC2=CC(=O)C[C@@H](C)[C@]2(C)C1 , state the outcome it received in this test.
Response: inactive

More entries:
Request: Given NC(=O)c1nc(F)c[nH]c1=O , state the outcome it received in this test.
Response: inactive

Request: Given COc1cc(-c2cc(-c3cccc(O)c3)cnc2N)cc(OC)c1OC , state the outcome it received in this test.
Response: active

Request: Given CCN(CC)CCNc1ccc2ncn3c4ccc(O)cc4c(=O)c1c23 , state the outcome it received in this test.
Response: active

Request: Given O=Nc1c2[nH]c3ccccc3nc-2c2ccccc12 , state the outcome it received in this test.
Response: active

Request: Given Cn1cc(-c2cnc3ccc4ccc(CS(=O)(=O)NCc5ccccn5)cc4c(=O)c3c2)cn1 , state the outcome it received in this test.
Response: active

Request: Given CN(CCCNC(=O)c1ccc2nc3c(c(Cl)c2c1)CCCC3)Cc1ccccc1 , state the outcome it received in this test.
Response: active

Request: Given CC1=CC(=O)C(C(C)C)=CC1=O , state the outcome it received in this test.
Response: active
